The measured values listed here are drawn from patent EP4786492A1.

# Tgt: DLL3 endogenously expressed on NCI-H82 cells (UniProt Q9NYJ7)
# Sequence (Q9NYJ7 27-618): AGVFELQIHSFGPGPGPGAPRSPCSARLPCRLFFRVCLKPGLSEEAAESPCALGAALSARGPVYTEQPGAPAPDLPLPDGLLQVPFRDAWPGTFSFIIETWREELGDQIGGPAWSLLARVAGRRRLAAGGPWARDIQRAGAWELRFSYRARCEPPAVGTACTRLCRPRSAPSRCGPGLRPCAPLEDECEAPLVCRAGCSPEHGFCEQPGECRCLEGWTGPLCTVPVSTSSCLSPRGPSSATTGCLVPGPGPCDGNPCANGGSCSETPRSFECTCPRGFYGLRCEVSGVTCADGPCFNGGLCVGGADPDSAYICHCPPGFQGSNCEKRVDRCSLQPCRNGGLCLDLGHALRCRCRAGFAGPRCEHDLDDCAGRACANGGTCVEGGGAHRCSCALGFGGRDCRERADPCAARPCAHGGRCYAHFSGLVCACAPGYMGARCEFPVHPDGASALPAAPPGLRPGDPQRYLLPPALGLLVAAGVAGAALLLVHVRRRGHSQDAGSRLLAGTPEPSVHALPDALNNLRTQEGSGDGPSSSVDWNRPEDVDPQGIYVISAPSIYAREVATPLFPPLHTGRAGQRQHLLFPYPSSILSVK
# Protocol notes: FACS on NCI-H82 cells; antibody 0.8 nM
Metric name: MFI
The response must contain the number and no unit.

Query: Bench note: what MFI did Hab014VL3VH1-hFc (scFv, part only; not given: VL-VH linker and human IgG1 Fc, V domains shown, not shown: another chain or arm of the molecule; a dimerising Fc or GST; small tags and cut ends) VL: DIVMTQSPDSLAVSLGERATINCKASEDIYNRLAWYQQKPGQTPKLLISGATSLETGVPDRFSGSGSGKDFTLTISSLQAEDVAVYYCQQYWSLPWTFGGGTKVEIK VH: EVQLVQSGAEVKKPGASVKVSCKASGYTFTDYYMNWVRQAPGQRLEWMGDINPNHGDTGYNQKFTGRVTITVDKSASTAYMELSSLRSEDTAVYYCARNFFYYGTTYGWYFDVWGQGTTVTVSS show?
Response: 547

Query: Bench note: what MFI did Hab009VL3aVH1-hFc (scFv, part only; not given: VL-VH linker and human IgG1 Fc, V domains shown, not shown: another chain or arm of the molecule; a dimerising Fc or GST; small tags and cut ends) VL: DIVMTQSPLSLPVTPGEPASISCRASQTISDYLHWYLQKSHQSPQLLIKYASQSISGVPDRFSGSGSGTDFTLKISRVEAEDVGVYYCQQGHSFPLTFGQGTKLEIK VH: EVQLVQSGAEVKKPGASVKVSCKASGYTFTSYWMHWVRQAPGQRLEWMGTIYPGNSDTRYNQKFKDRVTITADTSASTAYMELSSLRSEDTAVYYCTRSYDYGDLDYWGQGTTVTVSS show?
Response: 709

Query: Bench note: what MFI did Hab014VL2VH1-hFc (scFv, part only; not given: scFv linker and human IgG1 Fc, V domains shown, not shown: another chain or arm of the molecule; a dimerising Fc or GST; small tags and cut ends) VL: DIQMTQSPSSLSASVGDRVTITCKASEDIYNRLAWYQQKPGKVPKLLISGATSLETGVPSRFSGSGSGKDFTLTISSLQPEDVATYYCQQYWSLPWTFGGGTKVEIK VH: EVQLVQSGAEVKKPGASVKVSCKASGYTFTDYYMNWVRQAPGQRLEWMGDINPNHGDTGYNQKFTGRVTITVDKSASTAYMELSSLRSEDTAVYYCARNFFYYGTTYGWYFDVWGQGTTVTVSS show?
Response: 554
